Tested on: T. cruzi intracellular amastigotes
TEST: Image-based assay of the number of T. cruzi infected cells (intracellular amastigotes in 3T3 host cells)
Format: cell-based, Trypanosoma cruzi
CONDITION_SUMMARY: Trypanosoma cruzi; 48 hours incubation, compound wash off, further 72 hours without compound; highest test concentration 183 μM; read-out: T. cruzi Wash off IC50 value
Each entry below lists one item and its recorded pIC50 value.
The scale used: pIC50 is minus the common logarithm of the concentration in molar units.

- MOLECULE: "C#Cc1cn([C@H]2C[C@H](O)[C@@H](CO)O2)c(=O)[nH]c1=O [EdU, 5-ethynyl-2′-deoxy-uridine]"
  pIC50: 6.38

Prompt: Give recorded pIC50 with T. cruzi intracellular amastigotes for the following molecule: CC1CS(=O)(=O)CCN1/N=C/c1ccc([N+](=O)[O-])o1 (centres unmarked) [NFX, nifurtimox]
Completion: 5.85

* * *

Test system: T. cruzi intracellular amastigotes
TEST: Detection of T. cruzi replication following exposure to inhibitors (EdU incorporation vs Hoechst)
Format: cell-based, Trypanosoma cruzi
CONDITION_SUMMARY: Trypanosoma cruzi; 48 hours exposure, then 0.37 μM EdU for 4 hours; number of EdU incorporating parasites; mean ± SD; read-out: IC50 value Amastigotes (EdU)
MEASURED_ATTRIBUTE: IC50 (nM)
Response body: numeric value in nM, unit text excluded.

Here are 2 molecules together with their reported answers.
- MOLECULE: "O=C(Cn1ccnc1[N+](=O)[O-])NCc1ccccc1 [BZ, benznidazole]"
  IC50 (nM): 1290
- MOLECULE: "CC1CS(=O)(=O)CCN1/N=C/c1ccc([N+](=O)[O-])o1 (stereo not drawn) [NFX, nifurtimox]"
  IC50 (nM): 210

Okay, now this molecule:
Prompt: Need IC50 of CC[C@@H]([C@H](C)O)n1ncn(-c2ccc(N3CCN(c4ccc(OC[C@@H]5CO[C@@](Cn6cncn6)(c6ccc(F)cc6F)C5)cc4)CC3)cc2)c1=O [POSA, posaconazole] , thanks.
Completion: 3.8

* * *

Tested on: T. cruzi amastigote DNA
TEST: Incorporation of pyrimidine nucleoside analogues into T. cruzi amastigote DNA (click chemistry, colocalisation with Hoechst)
Type: cell-based, Trypanosoma cruzi
CONDITION_SUMMARY: 48 hours incubation
MEASURED_ATTRIBUTE: incorporation into T. cruzi DNA following 48 hours incubation (in words)

- STRUCTURE: "C#Cc1cn([C@H]2C[C@H](O)[C@@H](CO)O2)c(=O)nc1N"
  VALUE_REPORTED: "incorporated"
- STRUCTURE: "C#Cc1cn([C@@H]2O[C@H](CO)[C@@H](O)[C@@H]2Br)c(=O)[nH]c1=O"
  VALUE_REPORTED: "did not"
- STRUCTURE: "C#Cc1cn([C@@H]2O[C@H](CO)[C@@H](O)[C@@H]2I)c(=O)[nH]c1=O"
  VALUE_REPORTED: "did not"
- STRUCTURE: "C#Cc1cn([C@H]2C[C@H](O)[C@@H](CO)O2)c(=O)[nH]c1=O"
  VALUE_REPORTED: "incorporated"
- STRUCTURE: "C#Cc1cn([C@@H]2O[C@H](CO)[C@@H](O)[C@@H]2F)c(=O)[nH]c1=O"
  VALUE_REPORTED: "incorporated"

Lab note: next compound to report on.
Prompt: Recorded incorporation into T. cruzi DNA following 48 hours incubation (in words) of `C#Cc1cn([C@@H]2O[C@H](CO)[C@@H](O)[C@@H]2Cl)c(=O)[nH]c1=O` , please.
Completion: did not
